Provide the reported pKd of each item.
# assayed system: T1, PCSK9Δhelix (human, UniProt Q8NBP7 31-152; Q8NBP7 168-692)
# T1 construct: Made by TEV cleavage of human PCSK9 M1-Q692 with an engineered TEV site; The new N-terminus of the catalytic domain is S-A168; also called His-PCSK9Δhelix; PCSK9 lacking the P' helix
# T1 sequence (Q8NBP7 31-152, stated change not applied, chain 1 of 2): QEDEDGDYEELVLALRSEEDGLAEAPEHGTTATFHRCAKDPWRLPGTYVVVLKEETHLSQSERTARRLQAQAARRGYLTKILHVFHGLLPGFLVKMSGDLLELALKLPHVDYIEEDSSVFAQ
# T1 sequence (Q8NBP7 other isoform, or with tags, fused parts or gaps mutant, chain 2 of 2): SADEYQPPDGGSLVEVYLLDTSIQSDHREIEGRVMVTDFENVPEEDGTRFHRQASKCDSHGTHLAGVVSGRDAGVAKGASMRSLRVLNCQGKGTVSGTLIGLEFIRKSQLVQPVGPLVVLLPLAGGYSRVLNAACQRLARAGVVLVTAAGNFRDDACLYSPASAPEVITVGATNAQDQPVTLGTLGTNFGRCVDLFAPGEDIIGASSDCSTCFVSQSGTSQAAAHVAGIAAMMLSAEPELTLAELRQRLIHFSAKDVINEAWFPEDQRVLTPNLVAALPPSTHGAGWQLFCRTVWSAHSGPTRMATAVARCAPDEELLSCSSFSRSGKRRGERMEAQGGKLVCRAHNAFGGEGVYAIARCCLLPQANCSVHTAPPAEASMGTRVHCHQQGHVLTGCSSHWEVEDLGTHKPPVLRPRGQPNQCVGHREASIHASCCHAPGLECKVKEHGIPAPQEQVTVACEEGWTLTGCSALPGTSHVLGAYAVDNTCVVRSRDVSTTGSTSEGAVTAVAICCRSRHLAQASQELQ
# procedure details: SPR, Method 3 (SensiQ Pioneer FE, target amine-coupled, gradient injection)
Bridge positions count the residues as written; N and C are the ends. Square brackets hold non-standard residues; d marks the D form. * marks the point of attachment. 5FAM = O=C1OC2(c3ccc(O)cc3Oc3cc(O)ccc32)c2ccc(C(=O)*)cc21; Ach = 2-aminocyclohexane-1-carboxylic acid; Dap = NC[C@H](N)C(=O)O
# log scale: pKd equals minus log10 of the concentration in mol/L

Query: Supply pKd value. Item: Ac-MPWNLVRIGLLR-NH2 [Compound 51]
Response: 5.57

Query: Supply pKd value. Item: Ac-ALMPWNLVRIGLLR-NH2 [Compound 45]
Response: 5.09

Query: Supply pKd value. Item: 5FAM-SGSGCFIPWNLQRIGLLC-NH2 (disulfide 5-18 (inferred), Two Cys, disulfide-cyclized) [Compound 33]
Response: 5.00

Query: Supply pKd value. Item: Ac-CRL[Ach]WNLQRIGLPC-NH2 (disulfide 1-14 (inferred), Two Cys, disulfide-cyclized) [Compound 82]
Response: 5.19

Query: Supply pKd value. Item: Ac-CRLPWNLARIGLPC-NH2 (disulfide 1-14 (inferred), Two Cys, disulfide-cyclized) [Compound 73]
Response: 6.78

Query: Supply pKd value. Item: Ac-LMPWNLVRIGLLR-NH2 [Compound 50]
Response: 5.80

Query: Supply pKd value. Item: Ac-GSGCWNL[Dap]RIGSQGC-NH2 (disulfide 4-15; SMILES CC[C@H](C)[C@@H]1NC(=O)[C@H](CCCNC(=N)N)NC(=O)[C@H](CN)NC(=O)[C@H](CC(C)C)NC(=O)[C@H](CC(N)=O)NC(=O)[C@H](Cc2c[nH]c3ccccc23)NC(=O)[C@@H](NC(=O)CNC(=O)[C@H](CO)NC(=O)CNC(C)=O)CSSC[C@@H](C(N)=O)NC(=O)CNC(=O)[C@H](CCC(N)=O)NC(=O)[C@H](CO)NC(=O)CNC1=O, Two Cys, disulfide-cyclized; also called Ac-GSG-CWNL(Dpr)RIGSQGC-NH2) [Compound 97]
Response: 4.05

# credit: patent US20200283478A1
